Kindly state pIC50 for each of the entries shown.
pIC50: −log10 of the molar value.

Ask: For human CXCR6 (Homo sapiens, UniProt O00574), provide pIC50 of CCOc1cc(NC(=O)[C@@H](NC(=O)OC(C)(C)C)C(C)O)ccc1S(=O)(=O)Nc1cccc(OC(F)(F)F)c1 (stereo partly drawn) [Example 1.020] please.
Result: 5.70 to 6.12

Ask: For human CXCR6 (Homo sapiens, UniProt O00574), provide pIC50 of Cn1nccc1C(=O)Nc1ccc(S(=O)(=O)Nc2cccc(C(F)(F)F)c2)c(F)c1 [Example 1.256] please.
Result: 4.70 to 5.70

Ask: For human CXCR6 (Homo sapiens, UniProt O00574), provide pIC50 of CC(=O)Nc1cc(C)c(S(=O)(=O)Nc2cccc(C(F)(F)F)c2)c(F)c1 [Example 1.451] please.
Result: 4.70 to 5.70

---

target: human CXCR6 (Homo sapiens)
Kindly state IC50 for each of the entries shown.

Ask: Endpoint output: IC50 of COc1cc(NC(=O)C(O)C(C)C)ccc1S(=O)(=O)Nc1cccc(C(F)(F)F)c1 (centres unmarked) [Example 1.535] . Value?
Result: ≤ 200 nM

Ask: Endpoint output: IC50 of COc1cc(NC(=O)C2CCOCC2)ccc1S(=O)(=O)Nc1cccc(C(F)(F)F)c1 [Example 1.304] . Value?
Result: 750 to 2000 nM

Ask: Endpoint output: IC50 of COc1cc(NC(=O)CC2CC2)ccc1S(=O)(=O)Nc1cccc(C(F)(F)F)c1 [Example 1.414] . Value?
Result: 2000 to 20000 nM

Ask: Endpoint output: IC50 of COc1cc(NC(=O)c2ccnn2C)ccc1S(=O)(=O)Nc1cccc(OC(F)(F)F)c1 [Example 1.239] . Value?
Result: ≤ 200 nM

Ask: Endpoint output: IC50 of CCOc1cc(NC(=O)[C@@H](CO)c2ccccc2)ccc1S(=O)(=O)Nc1ccc(C)c(C(C)C)c1 [Example 1.439] . Value?
Result: ≤ 200 nM

Ask: Endpoint output: IC50 of CCOc1cc(NC(=O)[C@@H](O)C(C)C)ccc1S(=O)(=O)Nc1cccc(C(C)(F)F)c1 [Example 1.261] . Value?
Result: ≤ 200 nM

Ask: Endpoint output: IC50 of Cc1cc(NC(=O)c2cnco2)ccc1S(=O)(=O)Nc1cccc(C(F)(F)F)c1 [Example 1.252] . Value?
Result: 750 to 2000 nM

Ask: Endpoint output: IC50 of CCOc1cc(NC(=O)[C@H]2CCOC[C@H]2COC)ccc1S(=O)(=O)Nc1cccc(OC(F)(F)F)c1 [Example 1.499] . Value?
Result: ≤ 200 nM

Ask: Endpoint output: IC50 of CCOc1cc(NC(=O)C(CC)C(O)C2CCOCC2)ccc1S(=O)(=O)Nc1cccc(OC(F)(F)F)c1 (centres unmarked) [Example 1.039] . Value?
Result: ≤ 200 nM

Ask: Endpoint output: IC50 of COc1cc(NC(=O)C2CCCCC2=O)ccc1S(=O)(=O)Nc1cccc(OC(F)(F)F)c1 (centres unmarked) [Example 1.457] . Value?
Result: 2000 to 20000 nM

Ask: Endpoint output: IC50 of CCOc1cc(NC(=O)[C@@H]2CC=CC[C@H]2O)ccc1S(=O)(=O)Nc1cccc(OC(F)(F)F)c1 [Example 1.505] . Value?
Result: ≤ 200 nM

Ask: Endpoint output: IC50 of CCOc1cc(NC(=O)C(C(=O)O)C2CCOCC2)ccc1S(=O)(=O)Nc1cccc(OC(F)(F)F)c1 (centres unmarked) [Example 1.377] . Value?
Result: ≤ 200 nM

Ask: Endpoint output: IC50 of CC(=O)Nc1ccc(S(=O)(=O)Nc2cccc(C(F)(F)F)c2)c(C(C)C)c1 [Example 1.573] . Value?
Result: 2000 to 20000 nM

Ask: Endpoint output: IC50 of COc1cc(NC(=O)C2CC3CCC32O)ccc1S(=O)(=O)Nc1cccc(C(F)(F)F)c1 (centres unmarked) [Example 1.035] . Value?
Result: 200 to 750 nM

Ask: Endpoint output: IC50 of CCOc1cc(NC(=O)[C@@H](O)C(C)CC)ccc1S(=O)(=O)Nc1cccc(OC(F)(F)F)c1 (some centres unmarked) [Example 1.492] . Value?
Result: ≤ 200 nM

Ask: Endpoint output: IC50 of Cc1cc(NC(=O)C2CCNCC2)ccc1S(=O)(=O)Nc1cccc(C(F)(F)F)c1 [Example 1.381] . Value?
Result: 2000 to 20000 nM

Ask: Endpoint output: IC50 of CCOc1cc(NC(=O)C2COCCO2)ccc1S(=O)(=O)Nc1cccc(OC(F)(F)F)c1 (centres unmarked) [Example 1.282] . Value?
Result: 750 to 2000 nM

---

human CXCR6 (Homo sapiens, UniProt O00574) IC50 data
Sequence (O00574 whole entry): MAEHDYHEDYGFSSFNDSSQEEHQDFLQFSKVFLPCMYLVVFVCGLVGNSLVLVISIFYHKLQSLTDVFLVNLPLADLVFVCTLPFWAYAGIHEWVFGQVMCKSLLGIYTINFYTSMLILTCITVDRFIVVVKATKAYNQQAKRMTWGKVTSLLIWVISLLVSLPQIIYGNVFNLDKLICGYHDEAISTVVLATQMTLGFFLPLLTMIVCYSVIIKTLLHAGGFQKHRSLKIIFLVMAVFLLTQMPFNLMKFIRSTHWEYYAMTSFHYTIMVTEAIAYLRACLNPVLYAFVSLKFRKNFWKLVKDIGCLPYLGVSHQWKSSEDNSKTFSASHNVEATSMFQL

Ask: Endpoint output: IC50 of CCOc1cc(NC(=O)[C@H]2CCOC[C@H]2C)ccc1S(=O)(=O)Nc1cccc(OC(F)(F)F)c1 (racemic) . Value?
Result: ≤ 200 nM

Ask: Endpoint output: IC50 of CCOc1cc(NC(=O)[C@@H](NC(C)=O)C(C)C)ccc1S(=O)(=O)Nc1ccc(C)c(OC(F)(F)F)c1 . Value?
Result: ≤ 200 nM

Ask: Endpoint output: IC50 of CCOc1cc(NC(=O)[C@H](O)C2CCCC2)ccc1S(=O)(=O)Nc1cccc(OC(F)(F)F)c1 . Value?
Result: ≤ 200 nM

Ask: Endpoint output: IC50 of CCOc1cc(NC(=O)c2ccn(C)c(=O)c2C)ccc1S(=O)(=O)Nc1cccc(OC(F)(F)F)c1 . Value?
Result: ≤ 200 nM

Ask: Endpoint output: IC50 of CCOc1cc(NC(=O)[C@@H](CO)C(C)C)ccc1S(=O)(=O)Nc1cccc(Cl)c1C(F)(F)F . Value?
Result: 2000 to 20000 nM

Ask: Endpoint output: IC50 of CCOc1cc(NC(=O)C(C(=O)O)C2CCCC2)ccc1S(=O)(=O)Nc1cccc(OC(F)(F)F)c1 (centres unmarked) . Value?
Result: ≤ 200 nM

Ask: Endpoint output: IC50 of CCOc1cc(NC(=O)[C@@H](NC=O)C(C)CC)ccc1S(=O)(=O)Nc1cccc(OC(F)(F)F)c1 (some centres unmarked) . Value?
Result: ≤ 200 nM

Ask: Endpoint output: IC50 of CCOc1cc(NC(=O)[C@@H](CO)c2ccccc2)ccc1S(=O)(=O)Nc1cccc(OC)c1C . Value?
Result: 2000 to 20000 nM

Ask: Endpoint output: IC50 of COc1cc(NC(=O)C2CCOC2)ccc1S(=O)(=O)Nc1cccc(OC(F)(F)F)c1 (centres unmarked) . Value?
Result: 750 to 2000 nM

Ask: Endpoint output: IC50 of CCOc1cc(NC(=O)[C@@H](O)C(C)C)ccc1S(=O)(=O)Nc1ccc(F)c(CC)c1 . Value?
Result: ≤ 200 nM

Ask: Endpoint output: IC50 of CCOc1cc(NC(=O)[C@H]2CCOC[C@@H]2O)ccc1S(=O)(=O)Nc1cccc(OC(F)(F)F)c1 . Value?
Result: 200 to 750 nM

Ask: Endpoint output: IC50 of COc1cc(NC(=O)[C@@H]2CCC[C@@H](OC)C2)ccc1S(=O)(=O)Nc1cccc(C(F)(F)F)c1 . Value?
Result: 2000 to 20000 nM

Ask: Endpoint output: IC50 of CCOc1cc(NC(=O)C2CCCC(=O)C2)ccc1S(=O)(=O)Nc1cccc(OC(F)(F)F)c1 (centres unmarked) . Value?
Result: 200 to 750 nM

Ask: Endpoint output: IC50 of Cc1cc(NC(=O)c2cccnc2)ccc1S(=O)(=O)Nc1cccc(C(F)(F)F)c1 . Value?
Result: 200 to 750 nM

Ask: Endpoint output: IC50 of CCCc1cc(C(=O)Nc2ccc(S(=O)(=O)Nc3cccc(C(F)(F)F)c3)c(OC)c2)n(C)n1 . Value?
Result: 750 to 2000 nM

Ask: Endpoint output: IC50 of CCOc1cc(NC(=O)c2ccnnc2)ccc1S(=O)(=O)Nc1cccc(OC(F)(F)F)c1 . Value?
Result: ≤ 200 nM

Ask: Endpoint output: IC50 of Cc1cc(NC(=O)C2CCCO2)ccc1S(=O)(=O)Nc1cccc(C(F)(F)F)c1 (centres unmarked) . Value?
Result: 2000 to 20000 nM

Ask: Endpoint output: IC50 of Cc1cc(NC(=O)c2cccn2C)ccc1S(=O)(=O)Nc1cccc(C(F)(F)F)c1 . Value?
Result: 750 to 2000 nM

Ask: Endpoint output: IC50 of CCOc1cc(NC(=O)[C@@H](CO)c2ccccc2)ccc1S(=O)(=O)Nc1ccc(C)c(F)c1 . Value?
Result: 750 to 2000 nM

Ask: Endpoint output: IC50 of CCOc1cc(NC(=O)[C@@H](CO)c2ccccc2)ccc1S(=O)(=O)Nc1cccc(C(F)(F)F)c1 . Value?
Result: ≤ 200 nM

Ask: Endpoint output: IC50 of Cc1cc(NC(=O)c2ccncc2)ccc1S(=O)(=O)Nc1cccc(C(F)(F)F)c1 . Value?
Result: 200 to 750 nM

Ask: Endpoint output: IC50 of CCOc1cc(NC(=O)[C@@H](O)C(C)C)ccc1S(=O)(=O)Nc1ccc(C)c(Cl)c1 . Value?
Result: ≤ 200 nM

Ask: Endpoint output: IC50 of CCOc1cc(NC(=O)[C@@H](CO)C2CC2)ccc1S(=O)(=O)Nc1ccc(CC)c(C)c1 . Value?
Result: ≤ 200 nM

Ask: Endpoint output: IC50 of CCOc1cc(NC(=O)c2ccc[n+]([O-])c2)ccc1S(=O)(=O)Nc1cccc(OC(F)(F)F)c1 . Value?
Result: ≤ 200 nM

Ask: Endpoint output: IC50 of CCOc1cc(NC(=O)[C@@H](CO)C(C)C)ccc1S(=O)(=O)Nc1ccc(Cl)c(C(F)(F)F)c1 . Value?
Result: ≤ 200 nM

Ask: Endpoint output: IC50 of CCOc1cc(NC(=O)c2cccn(C)c2=O)ccc1S(=O)(=O)Nc1cccc(OC(F)(F)F)c1 . Value?
Result: 2000 to 20000 nM

Ask: Endpoint output: IC50 of COc1cc(NC(=O)[C@@H]2CCCNC2)ccc1S(=O)(=O)Nc1cccc(C(F)(F)F)c1 . Value?
Result: 2000 to 20000 nM

Ask: Endpoint output: IC50 of COc1cc(NC(=O)C2CC(=O)N(C)C2)ccc1S(=O)(=O)Nc1cccc(OC(F)(F)F)c1 (centres unmarked) . Value?
Result: 2000 to 20000 nM

Ask: Endpoint output: IC50 of C=Cc1cc(NS(=O)(=O)c2ccc(NC(=O)[C@@H](CO)C(C)C)cc2OCC)ccc1C . Value?
Result: ≤ 200 nM
